target: Alpha adrenergic receptor (1a and 1d) (Homo sapiens) (UniProt P35348+P25100); assay: Ratio of binding affinity of compound to human adrenergic receptor alpha-1d to that of human adrenergic receptor alpha-1a; assay type: protein assay
READOUT LABEL: Ratio

(A) CC(C)Oc1ccccc1N1CCN(Cc2cc(CN3CCCCC3=O)n[nH]2)CC1
(B) CC(C)Oc1ccccc1N1CCN(Cc2cc(CN3CCCCC3=O)nn2C)CC1
Lower value of Ratio belongs to which: A or B ? When you have decided, please share the label of that item.
B
(B: 5, A: 84)

(A) CC(C)Oc1ccccc1N1CCN(CC2=NOC(CN3CCCCC3=O)C2)CC1 (stereo unspecified)
(B) CC(C)Oc1ccccc1N1CCN(Cc2cc(CN3CCCCC3=O)on2)CC1
Smaller Ratio value, A vs B ? # reply format: chosen label
A

* * *

Biological target: Alpha-1D adrenergic receptor (Homo sapiens)
Sequence (P25100 whole entry): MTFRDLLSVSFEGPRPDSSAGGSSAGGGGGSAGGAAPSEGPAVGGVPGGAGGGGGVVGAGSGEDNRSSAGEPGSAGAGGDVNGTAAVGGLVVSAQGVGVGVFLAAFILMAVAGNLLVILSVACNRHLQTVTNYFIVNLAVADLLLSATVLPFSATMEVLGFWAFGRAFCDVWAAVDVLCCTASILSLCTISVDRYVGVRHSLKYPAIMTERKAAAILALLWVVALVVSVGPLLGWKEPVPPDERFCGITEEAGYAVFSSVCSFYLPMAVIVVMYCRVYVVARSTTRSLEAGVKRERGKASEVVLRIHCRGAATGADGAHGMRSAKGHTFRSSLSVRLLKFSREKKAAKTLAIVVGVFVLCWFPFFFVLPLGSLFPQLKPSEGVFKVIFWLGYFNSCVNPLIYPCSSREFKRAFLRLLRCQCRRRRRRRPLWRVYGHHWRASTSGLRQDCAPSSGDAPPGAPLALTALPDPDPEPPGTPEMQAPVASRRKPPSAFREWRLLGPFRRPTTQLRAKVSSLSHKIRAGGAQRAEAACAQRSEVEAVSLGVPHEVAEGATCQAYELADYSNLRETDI
READOUT LABEL: Ki (µM)
Please reply with the bare figure in µM and do not write the unit itself.

// CC(C)Oc1ccccc1N1CCN(Cc2cc(CN3CCCCC3=O)nn2C)CC1 : Ki value = 0.044

* * *

Target sequence: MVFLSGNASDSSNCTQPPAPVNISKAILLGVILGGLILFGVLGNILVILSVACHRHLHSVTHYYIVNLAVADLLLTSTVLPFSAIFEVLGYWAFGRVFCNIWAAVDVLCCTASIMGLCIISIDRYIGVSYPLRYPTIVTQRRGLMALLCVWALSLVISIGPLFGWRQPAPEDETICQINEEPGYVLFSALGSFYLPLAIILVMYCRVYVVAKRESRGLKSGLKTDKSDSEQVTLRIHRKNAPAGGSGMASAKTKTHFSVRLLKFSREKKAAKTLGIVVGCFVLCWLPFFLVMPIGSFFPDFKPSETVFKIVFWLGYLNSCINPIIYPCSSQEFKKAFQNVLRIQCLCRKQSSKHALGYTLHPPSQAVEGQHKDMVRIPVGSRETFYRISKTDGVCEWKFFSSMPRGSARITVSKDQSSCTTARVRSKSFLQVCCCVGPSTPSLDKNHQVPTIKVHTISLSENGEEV
READOUT LABEL: Ki (nM)

(I) CC(C)Oc1ccccc1N1CCN(Cc2cc(CN3CCCCC3=O)on2)CC1
(II) CC(C)Oc1ccccc1N1CCN(Cc2cc(CN3CCCCC3=O)n[nH]2)CC1
(III) CC(C)Oc1ccccc1N1CCN(Cc2cc(CN3CCCCC3=O)nn2C)CC1
Please give the order of these compounds when sorted by Ki, largest value leading. Record the ranking as a list of labels in the requested order.
III, I, II

* * *

target: Adrenergic receptors; alpha-1 A & B (Homo sapiens) (UniProt P35348+P35368); experiment: Ratio of binding affinity of compound to human adrenergic receptor alpha-1b to that of human adrenergic receptor alpha-1a; format: protein assay
READOUT LABEL: Ratio

| COMPOUND STRUCTURE | Ratio |
| --- | --- |
| CC(C)Oc1ccccc1N1CCN(Cc2cc(CN3CCCCC3=O)on2)CC1 | 1170 |

(1) CC(C)Oc1ccccc1N1CCN(Cc2cc(CN3CCCCC3=O)nn2C)CC1
(2) CC(C)Oc1ccccc1N1CCN(Cc2cc(CN3CCCCC3=O)n(C)n2)CC1
(3) CC(C)Oc1ccccc1N1CCN(Cc2cc(CN3CCCCC3=O)n[nH]2)CC1
Exam item: list the entries in increasing order of Ratio. # list labels per requested ordering
1, 2, 3

* * *

Biological target: Alpha-1B adrenergic receptor (Homo sapiens)
Sequence (P35368 whole entry): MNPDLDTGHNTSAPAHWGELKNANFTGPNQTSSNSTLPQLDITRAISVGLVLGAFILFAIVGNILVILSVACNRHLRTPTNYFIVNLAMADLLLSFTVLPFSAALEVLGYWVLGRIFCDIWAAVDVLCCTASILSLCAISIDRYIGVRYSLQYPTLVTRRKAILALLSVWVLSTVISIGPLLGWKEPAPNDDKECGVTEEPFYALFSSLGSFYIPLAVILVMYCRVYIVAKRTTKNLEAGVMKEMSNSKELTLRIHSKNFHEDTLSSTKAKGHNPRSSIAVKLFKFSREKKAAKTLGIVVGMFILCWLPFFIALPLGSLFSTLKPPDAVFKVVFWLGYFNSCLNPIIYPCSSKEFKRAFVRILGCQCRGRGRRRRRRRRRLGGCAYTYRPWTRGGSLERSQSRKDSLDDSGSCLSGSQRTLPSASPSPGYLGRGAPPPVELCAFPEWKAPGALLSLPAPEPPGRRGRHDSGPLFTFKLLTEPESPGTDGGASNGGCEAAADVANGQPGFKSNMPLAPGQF
READOUT LABEL: Ki (µM)

| COMPOUND STRUCTURE | Ki (µM) |
| --- | --- |
| CC(C)Oc1ccccc1N1CCN(Cc2cc(CN3CCCCC3=O)n[nH]2)CC1 | 3.92 |
| CC(C)Oc1ccccc1N1CCN(Cc2cc(CN3CCCCC3=O)on2)CC1 | 4.46 |
